B1: WSB1 (parent)
chain: DLKDDGNMMKVLRGHQNWVYSCAF

variants of: B1; test: protein stability index of a GFP-peptide fusion (GPS, HEK-293T) (PSI 1-6); higher = more stable; settings: c terminus: a fixed tail appended;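 further: lentivirally expressed fusions sorted by FACS into six bins by GFP to DsRed ratio, PSI derived from sequencing read proportions per bin multiplied by bin number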
recorded.metric: protein stability index

* DLKDDRNMMKVLRGHQNWVYSCAF [G6R] | 1.62
* DLKDDGNMMKVLRGHQNWVESCAF [Y20E] | 1.6
* DLKDDGNMMKVLAGHQNWVYSCAF [R13A] | 1.73
* DLKDDGNMMKVLRGHQNWVYSCEF [A23E] | 2.24
* DLKDDGNSMKVLRGHQNWVYSCAF [M8S] | 2.02
* DLKDDMNMMKVLRGHQNWVYSCAF [G6M] | 1.72
* DLKDDGNPMKVLRGHQNWVYSCAF [M8P] | 2.44
* DLKDDGNMMKVLRGHQNWVYSTAF [C22T] | 1.9
* DLKDDGNMMKVLWGHQNWVYSCAF [R13W] | 3.05
* DLKDDGWMMKVLRGHQNWVYSCAF [N7W] | 3.11
* DLKDDGNMMKVLRGHQNWVYECAF [S21E] | 1.94
* DLNDDGNMMKVLRGHQNWVYSCAF [K3N] | 1.43
* DLKDDGNMMKVLRGHQNWVYNCAF [S21N] | 1.46
* DLKDDGNMMKVLRGHQNVVYSCAF [W18V] | 1.07
* DLKDDGNMMKVLRGHQNWVASCAF [Y20A] | 2.28
* DLKDDGNDMKVLRGHQNWVYSCAF [M8D] | 2.5
* DLKDDGNMMKVLRGHQNWVYSIAF [C22I] | 2.86
* DLKDDGNMMKVLRGHQNWVYSCAP [F24P] | 2.95
* DLKDDGNMMKVNRGHQNWVYSCAF [L12N] | 1.5
* DLKWDGNMMKVLRGHQNWVYSCAF [D4W] | 2.2
* DLKDDGNMMKVLRGHQNGVYSCAF [W18G] | 2.21
* DLKDDGNMIKVLRGHQNWVYSCAF [M9I] | 4.37
* DLKDDGNMMKVLRGHQNWVYSCIF [A23I] | 1.43
* DLKRDGNMMKVLRGHQNWVYSCAF [D4R] | 1.59
* DLKDDGNMMKVLRGHQNWVYSCAC [F24C] | 1.47
* DLKDDGNRMKVLRGHQNWVYSCAF [M8R] | 2.35
* DLKDDSNMMKVLRGHQNWVYSCAF [G6S] | 1.92
* DLKDDGNMMKVLRGHQNWPYSCAF [V19P] | 2.03
* TLKDDGNMMKVLRGHQNWVYSCAF [D1T] | 2.3
* DLKDDGNMMKVLRGHQNWVHSCAF [Y20H] | 2.06
* DLKDDGNYMKVLRGHQNWVYSCAF [M8Y] | 1.39
* DLKDDGNAMKVLRGHQNWVYSCAF [M8A] | 1.83
* DLKYDGNMMKVLRGHQNWVYSCAF [D4Y] | 2.28
* DLKDDGNMMKVLRGHQNWVLSCAF [Y20L] | 2.57
* DLKDDGNMMKVMRGHQNWVYSCAF [L12M] | 1.24
* DLKEDGNMMKVLRGHQNWVYSCAF [D4E] | 1.91
* DLKDDGNMMKVLRGHKNWVYSCAF [Q16K] | 2.41
* DLKDDGNMMKVLRGAQNWVYSCAF [H15A] | 2.26
* DLKDDGNMMKVLRGHENWVYSCAF [Q16E] | 2.36
* DLKDDGNMMKVLEGHQNWVYSCAF [R13E] | 2.88
* DTKDDGNMMKVLRGHQNWVYSCAF [L2T] | 2.08
* DLKDDGNMMKVLRGHQNWWYSCAF [V19W] | 2.28
* DLKDDGNMMKVLRGHQNWVYSLAF [C22L] | 3.06
* DLKDDGNMMKVLRGHINWVYSCAF [Q16I] | 2.04
* DLKDDGNMMKVLREHQNWVYSCAF [G14E] | 1.45
* DLKDDGNMMKVLRGHQNWVYKCAF [S21K] | 1.07
* DLLDDGNMMKVLRGHQNWVYSCAF [K3L] | 1.83
* DLKDDGNMMKVLRPHQNWVYSCAF [G14P] | 1.91
* DLKDDGNGMKVLRGHQNWVYSCAF [M8G] | 2.55
* DLKDDGGMMKVLRGHQNWVYSCAF [N7G] | 2.54
* DLKDDGNMMKVLRGHQRWVYSCAF [N17R] | 2.05
* DLKDDYNMMKVLRGHQNWVYSCAF [G6Y] | 1.77
* DLKDDGNMMKRLRGHQNWVYSCAF [V11R] | 1.69
* DLKDDGNMMKVLRGHQNPVYSCAF [W18P] | 1.86
* KLKDDGNMMKVLRGHQNWVYSCAF [D1K] | 2.65
* DKKDDGNMMKVLRGHQNWVYSCAF [L2K] | 1.54
* DLKDDGNMMKVLRGHQNWVYSCAQ [F24Q] | 2.21
* DLKDDGNMMKTLRGHQNWVYSCAF [V11T] | 2.41
* DLKDDGNMYKVLRGHQNWVYSCAF [M9Y] | 1.06
* DLKDDGNMMKVLRGHQNLVYSCAF [W18L] | 2.88
* DLKDDGNMMKGLRGHQNWVYSCAF [V11G] | 1.65
* DLKDDGNMRKVLRGHQNWVYSCAF [M9R] | 1.54
* DLKFDGNMMKVLRGHQNWVYSCAF [D4F] | 2.77
* DQKDDGNMMKVLRGHQNWVYSCAF [L2Q] | 1.83
* DLKDDGNMMKVLRGLQNWVYSCAF [H15L] | 1.78

Values were extracted from the supplement of paper PMC10567573.
